Every entry's value here was drawn from patent US9649309B2.

# system: Axl (Homo sapiens (Human))
# Sequence (P30530 26-894 limits assumed): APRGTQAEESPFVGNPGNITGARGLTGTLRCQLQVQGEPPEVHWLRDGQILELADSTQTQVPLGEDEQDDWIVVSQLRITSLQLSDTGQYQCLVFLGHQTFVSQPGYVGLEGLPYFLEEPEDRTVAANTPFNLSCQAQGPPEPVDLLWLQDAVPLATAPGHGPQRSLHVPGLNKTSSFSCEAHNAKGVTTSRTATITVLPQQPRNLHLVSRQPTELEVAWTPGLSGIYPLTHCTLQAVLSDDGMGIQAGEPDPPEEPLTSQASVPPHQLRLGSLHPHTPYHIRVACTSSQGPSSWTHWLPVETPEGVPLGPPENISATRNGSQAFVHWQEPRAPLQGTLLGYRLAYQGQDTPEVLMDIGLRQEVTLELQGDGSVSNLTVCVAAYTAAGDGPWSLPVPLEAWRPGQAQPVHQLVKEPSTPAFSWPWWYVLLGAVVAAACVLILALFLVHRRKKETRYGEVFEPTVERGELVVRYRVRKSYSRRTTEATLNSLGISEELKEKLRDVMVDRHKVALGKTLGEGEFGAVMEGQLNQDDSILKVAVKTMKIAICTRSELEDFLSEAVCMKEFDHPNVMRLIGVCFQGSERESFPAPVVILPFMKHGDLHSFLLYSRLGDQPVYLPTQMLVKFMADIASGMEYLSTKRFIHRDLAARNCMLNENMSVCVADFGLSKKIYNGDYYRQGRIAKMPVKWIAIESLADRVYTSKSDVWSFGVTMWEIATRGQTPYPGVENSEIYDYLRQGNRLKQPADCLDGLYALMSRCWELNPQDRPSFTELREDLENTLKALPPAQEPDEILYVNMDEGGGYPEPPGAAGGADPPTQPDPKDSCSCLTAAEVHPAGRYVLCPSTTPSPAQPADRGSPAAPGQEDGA
# measurement conditions: read-out: IC50 Axl
experimental endpoint: IC50 (nM)
The answer is to be given in nM; state only the numeric part.

Ask: Suppose we examine the compound CCCCNc1ncc(-c2nc(C(F)(F)F)cs2)c(N[C@H]2CC[C@H](O)CC2)n1 [UNC3149A] ; what IC50 value has been reported?
Result: 30000

Ask: Okay, and CCCCNc1ncc(C(=O)NCc2ccc(Cn3ccnc3)cc2)c(N[C@H]2CC[C@H](O)CC2)n1 [UNC3144A] ?
Result: 487

Ask: Proceed to CCCCNc1ncc(C(=O)NCC2CCN(C(C)C)CC2)c(N[C@H]2CC[C@H](O)CC2)n1 [UNC4289A]
Result: 420
